The origin of these recorded values is PubChem BioAssay AID422.

- subjectOfTest: 14-3-3 protein gamma (Homo sapiens) (UniProt P61981)
- Sequence (P61981 whole entry, looked up): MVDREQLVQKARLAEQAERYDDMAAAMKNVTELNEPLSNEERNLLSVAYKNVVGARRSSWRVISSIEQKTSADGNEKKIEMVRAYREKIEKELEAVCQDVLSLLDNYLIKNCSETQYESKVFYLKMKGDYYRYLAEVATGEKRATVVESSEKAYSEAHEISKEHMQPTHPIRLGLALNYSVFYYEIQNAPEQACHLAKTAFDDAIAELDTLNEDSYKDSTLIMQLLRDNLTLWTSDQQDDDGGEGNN
- assayMethodText: modulators of 14-3-3 gamma protein binding, primary screen, biochemical, fluorescence polarization (AID 422);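 note: 0% = protein plus tracer without compound and 100% = blank with tracer alone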
- studyConditions: FP, 14-3-3gamma / TMR-pS259-Raf peptide binding; at 40 µM; hits give high values
In all, about 160,000 compounds went through this assay and about 310 (0.19%) were called active. The entries come from a sample that favours actives as a whole.
assayReadout: inhibition (%)

INSERT INTO measurements (compound, val) VALUES
  ('CN(C)/C=C1/Nc2ccccc2C1=O', -0.95),
  ('O=c1oc2ccc(Cl)cc2cc1-c1cn2cc(Cl)cc(Cl)c2n1', -12.1),
  ('COC(=O)c1ccc2c(c1N)C(=O)c1ccccc1C2=O', -200),
  ('C=C(C)Cn1c(-c2ccc(N(C)C)cc2)nc2ccccc21', -2.28),
  ('O=C(Nc1cccc(-c2nc3ccccc3s2)c1)c1cccnc1Cl', -17.9),
  ('COc1cccc(-c2nn(C)c3sc(C(=O)NCCCOC(C)C)cc23)c1', -12.3),
  ('COc1ccc(C2Nc3ccccc3NC3=C2C(=O)CC(c2cccc([N+](=O)[O-])c2)C3)cc1 (configuration not stated)', 0.48),
  ('CCN(CC)c1ccc2cc(C(N)=O)c(=Nc3ccc(C(N)=O)cc3)oc2c1', 3.05),
  ('O=C1NC2=C(C(=O)c3ccccc32)C(c2ccccc2)S1 (configuration not stated)', 3.21),
  ('CCOC(=O)C(NC(=O)c1ccc(OC)cc1)(NC1CCCCC1)C(F)(F)F (configuration not stated)', -6.18),
  ('O=C1C2CC=C(Cl)CC2C(=O)N1c1ccc(O)cc1 (configuration not stated)', -3.22),
  ('N#Cc1c(N2CCCCCC2)ncc2cc3ccccc3nc12', 143),
  ('CC(C)c1ccc(NC(=O)c2ccc(F)c(S(=O)(=O)NCc3ccccc3Cl)c2)cc1', -7.39),
  ('Cc1cc2c(c(=O)[nH]1)C(=O)NC2=O', -1.31),
  ('CN(C)c1ccc(Nc2cc(N3CCCC3)c3noc4c3c2C(=O)c2ccccc2-4)cc1', -88.4),
  ('CCNc1cc(Nc2ccccc2)c2c3c(onc13)-c1ccccc1C2=O', -69.4),
  ('CC(C)CCOC(=O)c1c2c(n3ccccc13)C(=O)c1ccccc1C2=O', 34.6),
  ('Cc1cc(NCCN2CCCCCC2)n2c(nc3ccccc32)c1C#N', -60.5),
  ('COc1ccc(C2=NN(c3ccccc3)C(c3ccc(F)cc3)C2)cc1 (configuration not stated)', -10.6),
  ('COCCn1c(=S)[nH]c2cc(C(=O)N3CCN(C(=O)c4ccco4)CC3)ccc2c1=O', 2.47),
  ('COc1cc(NS(=O)(=O)c2c(C)n[nH]c2C)cc(OC)c1', -0.99),
  ('Cc1ccc2nc(-c3cc(NC(=O)c4cc(Cl)ccc4[N+](=O)[O-])ccc3Cl)oc2c1', -15.8),
  ('COc1ccc(C)cc1NC(=O)C1(S(=O)(=O)c2ccc(Cl)cc2)CC1', -7.62),
  ('CCCCCn1c(=O)[nH]c2cc(C(=O)NC(C)C)ccc2c1=O', -3.1),
  ('CC(=O)OCC#CCSc1nc2ccccc2o1', -1.9),
  ('CCCCNC(=O)c1c[nH]c2ccc(S(=O)(=O)Nc3cccc(OC)c3)cc2c1=O', -22.6),
  ('Cc1cccc2cc(C#N)c(N3CCCC3)nc12', -5.89),
  ('Cn1c(SCc2ccccc2Br)nnc1-c1ccc([N+](=O)[O-])cc1', -3.43),
  ('O=C(CN1CCCN(S(=O)(=O)c2ccc(Br)cc2)CC1)Nc1ccccc1F', -7.48),
  ('COc1ccc(-n2ncc3c(N4CCCc5ccccc54)ncnc32)cc1', 43.9),
  ('O=C(CCCOc1ccc(Br)cc1)Nc1ncc(Cc2ccc(F)cc2)s1', -2.12),
  ('O=C1Nc2ccccc2C1=Nc1ccc(O)cc1', 87.3);
